tested.on: Voltage-gated inwardly rectifying potassium channel KCNH2 (Homo sapiens, UniProt Q12809)
Sequence (Q12809 whole entry): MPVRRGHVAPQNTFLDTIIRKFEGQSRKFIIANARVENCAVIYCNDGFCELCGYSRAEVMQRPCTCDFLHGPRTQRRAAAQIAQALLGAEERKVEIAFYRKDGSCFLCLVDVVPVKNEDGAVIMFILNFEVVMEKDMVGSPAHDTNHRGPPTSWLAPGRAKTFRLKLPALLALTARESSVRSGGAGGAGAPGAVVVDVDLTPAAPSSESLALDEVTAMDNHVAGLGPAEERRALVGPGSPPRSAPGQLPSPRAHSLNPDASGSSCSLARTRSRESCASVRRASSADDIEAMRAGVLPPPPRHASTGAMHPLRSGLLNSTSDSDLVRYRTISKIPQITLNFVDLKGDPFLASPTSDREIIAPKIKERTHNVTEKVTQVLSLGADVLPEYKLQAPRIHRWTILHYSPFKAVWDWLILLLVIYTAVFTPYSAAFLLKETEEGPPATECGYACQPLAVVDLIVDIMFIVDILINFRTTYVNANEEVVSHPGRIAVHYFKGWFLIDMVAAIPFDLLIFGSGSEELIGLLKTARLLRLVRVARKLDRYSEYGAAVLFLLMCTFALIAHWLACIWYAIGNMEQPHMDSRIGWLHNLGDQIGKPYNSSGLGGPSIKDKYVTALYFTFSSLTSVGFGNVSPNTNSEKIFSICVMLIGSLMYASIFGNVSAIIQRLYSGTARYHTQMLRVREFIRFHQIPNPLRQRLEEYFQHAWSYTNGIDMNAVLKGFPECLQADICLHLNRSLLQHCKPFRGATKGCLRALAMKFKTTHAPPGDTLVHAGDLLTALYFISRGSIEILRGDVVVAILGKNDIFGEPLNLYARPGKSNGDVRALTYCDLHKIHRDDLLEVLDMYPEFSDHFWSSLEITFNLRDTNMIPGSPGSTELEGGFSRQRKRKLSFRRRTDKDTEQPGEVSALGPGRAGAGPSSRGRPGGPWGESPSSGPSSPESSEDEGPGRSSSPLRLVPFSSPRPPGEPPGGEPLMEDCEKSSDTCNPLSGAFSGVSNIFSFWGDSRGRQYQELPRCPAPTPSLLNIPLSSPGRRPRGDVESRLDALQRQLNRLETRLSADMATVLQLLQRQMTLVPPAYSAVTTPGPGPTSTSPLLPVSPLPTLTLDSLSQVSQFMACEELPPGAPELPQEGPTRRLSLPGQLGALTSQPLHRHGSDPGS
experiment.description: Displacement of [3H]-dofetilid from human ERG expressed in HEK293 cells
Format: cell-based
Reported log10 INH is given for each of the following compounds.
Answers are given as log10 of INH in µM.

Below, 3 compounds whose answers are already recorded.
Lab note: COc1cc2nc(/C=C/c3cccnc3)nc(N3CCC(CNS(N)(=O)=O)CC3)c2cc1OC gave log10 INH of 0.52

Lab note: Cc1nccn1-c1nccc(N2CCC(CCNS(N)(=O)=O)CC2)n1 gave log10 INH of 0.84

Lab note: COc1cc2ncnc(N3CCC(CCNS(N)(=O)=O)CC3)c2cc1OC gave log10 INH of -0.22

---
Lab note: COc1ccc2c(N3CCC(CCNS(N)(=O)=O)CC3)ncnc2c1 gave log10 INH of -0.92

Lab note: NS(=O)(=O)NCCC1CCN(c2ncnc3cc(Cl)ccc23)CC1 gave log10 INH of 0.53

Lab note: COc1cc2nc(/C=C/c3cccnc3)nc(N3CCC(CCNS(N)(=O)=O)CC3)c2cc1OC gave log10 INH of -0.56

----------
tested.on: Ectonucleotide pyrophosphatase/phosphodiesterase family member 1 (Homo sapiens)
experiment.description: Inhibition of PC1 by in vitro Kinase-Glo assay
Reported INH is given for each of the following compounds.
The reply should be a number in µM, with the unit left off.

Below, 3 compounds whose answers are already recorded.
Lab note: COc1cc2ncnc(N3CCC(CNS(N)(=O)=O)CC3)c2cc1OC gave INH of 0.061

Lab note: COc1cc2nc(/C=C/c3cccnc3)nc(N3CCC(CNS(N)(=O)=O)CC3)c2cc1OC gave INH of 0.063

Lab note: COc1ccc2c(N3CCC(CCNS(N)(=O)=O)CC3)ncnc2c1 gave INH of 0.187

---
Lab note: COc1cc2nc(/C=C/c3cccnc3)nc(N3CCC(CCNS(N)(=O)=O)CC3)c2cc1OC gave INH of 0.0353

Lab note: Cc1nccn1-c1nccc(N2CCC(CCNS(N)(=O)=O)CC2)n1 gave INH of 2.45

Lab note: CCc1nc(N2CCC(CCNS(N)(=O)=O)CC2)c2cc(OC)c(OC)cc2n1 gave INH of 0.214

Lab note: NS(=O)(=O)NCCC1CCN(c2ncnc3ccc(Cl)cc23)CC1 gave INH of 5.98

Lab note: COc1ccc2c(N3CCC(CNS(N)(=O)=O)CC3)ncnc2c1 gave INH of 0.166

Lab note: COc1cc2ncnc(N3CCC(CCNS(N)(=O)=O)CC3)c2cc1OC gave INH of 0.0362

Lab note: Cc1nccn1-c1cc(N2CCC(CCNS(N)(=O)=O)CC2)ncn1 gave INH of 0.6

----------
experiment.description: Selectivity for PC1 to human ERG channel
metric: Ratio

Below, 3 compounds whose answers are already recorded.
Lab note: COc1cc2nc(/C=C/c3cccnc3)nc(N3CCC(CNS(N)(=O)=O)CC3)c2cc1OC gave Ratio of 52

Lab note: COc1cc2nc(/C=C/c3cccnc3)nc(N3CCC(CCNS(N)(=O)=O)CC3)c2cc1OC gave Ratio of 8

Lab note: COc1ccc2c(N3CCC(CNS(N)(=O)=O)CC3)ncnc2c1 gave Ratio of > 60

---
Lab note: COc1cc2ncnc(N3CCC(CCNS(N)(=O)=O)CC3)c2cc1OC gave Ratio of 17

Lab note: COc1ccc2c(N3CCC(CCNS(N)(=O)=O)CC3)ncnc2c1 gave Ratio of 1

Lab note: COc1cc2ncnc(N3CCC(CNS(N)(=O)=O)CC3)c2cc1OC gave Ratio of > 160

Lab note: Cc1nccn1-c1cc(N2CCC(CCNS(N)(=O)=O)CC2)ncn1 gave Ratio of > 16

----------
tested.on: Ectonucleotide pyrophosphatase/phosphodiesterase family member 1 (Homo sapiens)
Sequence (whole entry): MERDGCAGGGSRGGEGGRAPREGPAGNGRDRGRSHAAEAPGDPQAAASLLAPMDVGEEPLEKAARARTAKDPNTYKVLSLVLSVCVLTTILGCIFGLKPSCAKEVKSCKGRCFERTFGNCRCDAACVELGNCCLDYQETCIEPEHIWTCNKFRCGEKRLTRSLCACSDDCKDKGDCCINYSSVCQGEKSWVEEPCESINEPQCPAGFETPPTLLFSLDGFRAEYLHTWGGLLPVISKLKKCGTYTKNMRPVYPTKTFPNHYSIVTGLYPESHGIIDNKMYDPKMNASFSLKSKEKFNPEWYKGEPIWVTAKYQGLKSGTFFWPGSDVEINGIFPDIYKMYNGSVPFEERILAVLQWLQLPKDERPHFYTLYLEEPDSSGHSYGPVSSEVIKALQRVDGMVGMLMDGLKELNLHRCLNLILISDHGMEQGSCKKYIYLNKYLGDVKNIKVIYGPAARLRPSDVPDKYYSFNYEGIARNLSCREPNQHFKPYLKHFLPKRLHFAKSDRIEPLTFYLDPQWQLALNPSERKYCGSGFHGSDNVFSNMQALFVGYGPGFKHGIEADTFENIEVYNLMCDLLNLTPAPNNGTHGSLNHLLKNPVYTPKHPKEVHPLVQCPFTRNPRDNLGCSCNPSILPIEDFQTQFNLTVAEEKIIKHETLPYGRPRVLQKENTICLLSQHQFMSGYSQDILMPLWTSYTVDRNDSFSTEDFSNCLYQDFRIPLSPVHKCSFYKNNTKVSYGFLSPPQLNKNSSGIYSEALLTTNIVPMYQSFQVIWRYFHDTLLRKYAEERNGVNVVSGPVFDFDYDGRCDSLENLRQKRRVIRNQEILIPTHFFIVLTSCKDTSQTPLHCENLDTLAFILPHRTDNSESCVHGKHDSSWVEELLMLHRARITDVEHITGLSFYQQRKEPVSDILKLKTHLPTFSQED
experiment.description: Inhibition of PC1 by in vitro Kinase-Glo assay
Reported INH is given for each of the following compounds.

Below, 2 compounds whose answers are already recorded.
Lab note: COc1cc2ncnc(N3CCC(NS(N)(=O)=O)CC3)c2cc1OC gave INH of > 10 µM

Lab note: NS(=O)(=O)NCCC1CCN(c2ncnc3cc(Cl)ccc23)CC1 gave INH of > 10 µM

Now let's try a different one.
Lab note: Cc1nccn1-c1cc(N2CCC(CNS(N)(=O)=O)CC2)ncn1 gave INH of > 10 µM
